For each of the molecules below, state its pIC50.
Target: UniProt:Q9Z1M0
Sequence (Q9Z1M0 whole entry): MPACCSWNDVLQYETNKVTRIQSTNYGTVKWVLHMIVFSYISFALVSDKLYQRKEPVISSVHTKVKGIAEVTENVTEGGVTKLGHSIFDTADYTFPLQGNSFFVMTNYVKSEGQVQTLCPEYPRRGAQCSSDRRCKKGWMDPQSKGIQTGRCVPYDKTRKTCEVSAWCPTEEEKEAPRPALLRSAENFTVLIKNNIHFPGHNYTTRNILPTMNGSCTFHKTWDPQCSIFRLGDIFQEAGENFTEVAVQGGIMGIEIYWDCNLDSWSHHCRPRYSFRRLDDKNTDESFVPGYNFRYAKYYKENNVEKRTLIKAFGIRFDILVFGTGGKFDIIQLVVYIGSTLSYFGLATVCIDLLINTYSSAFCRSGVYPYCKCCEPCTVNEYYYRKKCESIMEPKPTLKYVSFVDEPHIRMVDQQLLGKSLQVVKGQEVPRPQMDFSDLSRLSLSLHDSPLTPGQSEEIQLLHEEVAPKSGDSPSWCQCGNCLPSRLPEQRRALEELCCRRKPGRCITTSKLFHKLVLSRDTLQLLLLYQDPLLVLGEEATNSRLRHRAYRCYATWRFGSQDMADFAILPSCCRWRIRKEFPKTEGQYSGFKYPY
Assay: P2X7 channel calcium-influx assay (Fluo-8, FLIPR TETRA), mouse P2X7
Conditions: HEK-293 cells stably transfected with P2X7; Bz-ATP at EC80; low divalent cation buffer; read-out: mouseP2X7 (activity range)
pIC50: −log10 of the molar value.

Some solved entries appear below for comparison.
INSERT INTO assay_data (molecule, target_or_system, observed) VALUES
  ('CCn1nc(Cc2ccccc2Cl)n(CC2CCCCCC2)c1=O [Example 64]', 'UniProt:Q9Z1M0', '6.00 to 6.70'),
  ('Cn1nc(Cc2ccc(F)cc2Cl)n(CCC2CCC(C)(C)CC2)c1=O [Example 41]', 'UniProt:Q9Z1M0', '4.52 to 5.00'),
  ('CN1CCCCC1Cn1c(Cc2c(F)cccc2Cl)nn(C)c1=O (stereo not shown) [Example 21]', 'UniProt:Q9Z1M0', '4.52 to 5.00'),
  ('O=c1n(CC(F)F)nc(Cc2c(F)cccc2Cl)n1CC1CCC(F)(F)CC1 [Example 58]', 'UniProt:Q9Z1M0', '> 6.70'),
  ('Cn1nc(Cc2ccccc2C(F)(F)F)n(CC2CCC(F)(F)CC2)c1=O [Example 18]', 'UniProt:Q9Z1M0', '5.00 to 6.00'),
  ('Cn1nc(Cc2ccccc2Cl)n(CC2CCC(F)(F)CC2)c1=O [Example 42]', 'UniProt:Q9Z1M0', '6.00 to 6.70'),
  ('O=c1n(CC2CC2)nc(Cc2c(F)cccc2Cl)n1CC1CCC(F)(F)C1 (stereo not shown) [Example 66]', 'UniProt:Q9Z1M0', '5.00 to 6.00'),
  ('CCn1nc(Cc2c(F)cccc2Cl)n(CC2CCC(F)(F)CC2)c1=O [Example 34]', 'UniProt:Q9Z1M0', '> 6.70');

Dear colleague, could you please provide pIC50 for the molecules listed below?
1. CCn1nc(Cc2ccccc2Cl)n(CC2CCC(F)(F)CC2)c1=O [Example 63]
2. O=c1n(CC(F)(F)F)nc(CC2CCCCCC2)n1Cc1c(F)cccc1Cl [Example 61]
3. Cn1nc(Cc2c(F)cccc2Cl)n(CC2(C)CCCCCC2)c1=O [Example 56]
4. Cn1nc(Cc2ccccc2C(F)(F)F)n(CC2CCCCC2(C)C)c1=O (stereo not shown) [Example 23]

1: 6.00 to 6.70; 2: 5.00 to 6.00; 3: 4.52 to 5.00; 4: 6.00 to 6.70

Dear colleague, could you please provide pIC50 for the molecules listed below?
1. Cn1nc(Cc2c(F)cccc2Cl)n(CC2CCCO2)c1=O (stereo not shown) [Example 20]
2. Cn1nc(CC2CCCCC2)n(Cc2c(F)cccc2Cl)c1=O [Example 24]
3. Cn1nc(Cc2ccc(F)cc2Cl)n(CCC2CCC(F)(F)CC2)c1=O [Example 36]
4. Cn1nc(CC2CCCCC2)n(Cc2cc(-c3ncc(F)cn3)ccc2Cl)c1=O [Example 38]
5. Cn1nc(Cc2ccccc2C(F)(F)F)n(CCC2CCC(C)(C)CC2)c1=O [Example 49]
6. O=c1n(CC(F)(F)F)nc(Cc2c(F)cccc2Cl)n1CC1CCCCCC1 [Example 67]

1: 4.52 to 5.00; 2: 5.00 to 6.00; 3: 5.00 to 6.00; 4: 5.00 to 6.00; 5: 4.52 to 5.00; 6: > 6.70

Recorded pIC50 of Cn1nc(Cc2c(F)cccc2Cl)n(CC2CCCCC2)c1=O [Example 2] , please.
6.00 to 6.70
